Target: T1, AFP158/HLA-A*02:01 complex (human)
T1 construct: biotinylated on the BSP by BirA for ELISA and panning; also called biotinylated AFP158/HLA-A*02:01 complex; Bio-AFP158
Assay: SPR, antibody captured via mIgG2a-Fc, complex as analyte
Measured kon values are reported for all entries that follow.
outcome.measure: kon (M⁻¹ s⁻¹)

- binder: "AS190259 scFv-mIgG2aFc (Fc fusion, not shown: a dimerising Fc or GST, Camel scFv; i647-labelled for flow cytometry) QSVVTQPSAVSVSLEETATITCQGGGYYVNWYQQKPGQAPVLVIYLNTNRPSGIPERFSASKSGGTATLTINGAQAEDEAAYYCQSADSSGNSAVFGGGTHLTVLGGGGSGGGGSGGGGSQVQLVQSGGGLVQPGGSLRLSCAASGFTFSSYAMSWVRQAPGKGLEWVSAINSGGGSTYYADSVKGRFTISRDNAKNTLYLQLNSLKTEDTAMYYCAKAASGYGGSWWGDATLDAWGQGTLVTVSS"
  value.observed: 350000
- binder: "AS170036 scFv-mIgG2aFc (Fc fusion, not shown: a dimerising Fc or GST, Camel scFv) QLVLTQPSSVSGTPGQTVTISCAGTSSDVGSENYVSWYRQLPGTAPKLLIYQVNKRASGIADRFSGSKSGNTASMTISGLQSADEADYYCASYRSSDHNIVFGGGTHLTVLGGGGSGGGGSGGGGSAVQLVESGGGLVQPGGSLRLSCTASGFTFSSYAMSWVRQAPGKGLEWVSTINSGTGSPYYADSVKGRFTISRDNAKNTLYLQLNSLKTEDTAMYYCAKNFFDGSWFLGPPAMDYWGKGTLVTISS"
  value.observed: 240000
- binder: "AS179723 scFv-mIgG2aFc (Fc fusion, not shown: a dimerising Fc or GST, Camel scFv; i647-labelled for flow cytometry) QAGLTQPPSMSGSPRQSVTISCTGSSNNIGGNYVNWYQHLPGTAPKLLIYDNKNRPSGVPEQISGSKSGSSASLTITGLQAEDEGDYYCASWDDSLSAVVFGGGTHLTVLGGGGSGGGGSGGGGSEVQLVESGGGLVQPGGSLRLSCAASGFTFLNYAMSWVRQAPGKGLEWVSSNSGAGSTYYSDSVKGRFTISRDYAKNVVYLQLNSLKTEDTGMYYCAKGTNVGSWSSLHYWGQGTQVTVSS"
  value.observed: 110000
- binder: "AS167821 sdAb-mIgG2aFc (Fc fusion, not shown: a dimerising Fc or GST, i647-labelled for flow cytometry) QVRLVESGGGSVQAGGSLRLSCAASGRTYSTYCMGWFRQAPGKEREGVATIYIGSGRTYYVDSVKGRFTISQDNAKNTLYLQMNNLKPEDTAMYYCTADVDPYESSWSRGLGYWGQGTQVTVSS"
  value.observed: 410000
- binder: "AS167830 sdAb-mIgG2aFc (Fc fusion, not shown: a dimerising Fc or GST, i647-labelled for flow cytometry) QVKLVESGGGSVQAGGSLRLSCAASRSSEYMNRRFCMGWFRQASGKEREGVAVVYIGGGRTYYADSVKGRFTISQDNAKNTLYLQMNNLKPEDTAMYYCTADVDPYESSWSRDLGYWGQGTQVTVSS"
  value.observed: 270000
- binder: "AS148691 scFv-mIgG2aFc (Fc fusion, not shown: a dimerising Fc or GST, i647-labelled for flow cytometry) DIQMTQSPSSLSASVGDRVTITCRASQSVSSAVAWYQQKPGKAPKLLIYSASSLYSGVPSRFSGSRSGTDFTLTISSLQPEDFATYYCQQYYGAYLITFGQGTKVEIKGGGGSGGGGSGGGGSEVQLVESGGGLVQPGGSLRLSCAASGFNLYYSSIHWVRQAPGKGLEWVASIYSSYGSTSYADSVKGRFTISADTSKNTAYLQMNSLRAEDTAVYYCARVGPGYYGIDYWGQGTLVTVSS"
  value.observed: 71000
- binder: "AS179732 scFv-mIgG2aFc (Fc fusion, not shown: a dimerising Fc or GST, Camel scFv; i647-labelled for flow cytometry) NFMLTQPPSMSGSPRQSVTISCTGSSSNIGGNYVNWYQHLPGTAPKLLIYDNSNRASGVPERFSGSKSGSSASLTITGLQAEDEGDYYCASWDDSLSGAVFGGGTHLTVLGGGGSGGGGSGGGGSEVQLVESGGGLVQPGGSLRLSCAASGFTFLNYAMSWVRQAPGKGLEWVSSNSGAGSTYYSDSVKGRFTISRDYAKNVVYLQLNSLKTEDTGMYYCAKGTNVGSWSSLHYWGQGTQVTVSS"
  value.observed: 130000
